- Tested on: K4 kissing-loop RNA reporter;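 note: bound reporter read as fluorescence of individual clusters on recovered sequencing chips by microscopy, with normalized cluster intensities fitted with a binding model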
- test name: apparent KD of K4 kissing-loop reporter; higher = weaker reporter binding
- test parameters: Eterna round: R107; input ligand: FMN 200 uM
Parameter threshold = 200 nM. Response is Satisfied when apparent KD of K4 kissing-loop reporter meets or exceeds it, else Not satisfied.

- sequence text: "CUGGGUUGACGAAAAGUCAACAAAUGAGAAGGAGCGCACGAAAGUGCAGGUAGGUCGCUCAAUCCAGUGAUGUUGGGUCAUCCAG [#SwitchBubble 13 #K4Late]"
  cat: "Satisfied"
- sequence text: "CUCGUGGGUUUGAGAGGGCUUGUGGGAAGUGAGGAUAUUUAGGGAGAAAGAAGGCACUAUAGAAUAUAGUGAUGUUAUGUAAGGG [SSFMNA.O]"
  cat: "Satisfied"
- sequence text: "AACGGCCAGUCGGCCGCCACUCAAAGCAGUGAUGUUGCUAACUUUCUAAAAGAGUGAUGUUCUUAGAGGACCGGGACUAAUGUAA [Exclusion Tryptophan B GF 2]"
  cat: "Not satisfied"
- sequence text: "AGAACUGUCUUGGAUACCAGUGAUGUUGGUAUCUGUGUGUGAGUGCAAAGCGUCCCACAUUGCCCUUGGCAGCUAAGACUGUUCA [Omei KL Theo B Exc A v1]"
  cat: "Not satisfied"
- sequence text: "AGUGCACUGUCAGGAUAUAUACAGUGAUGUUGUGUAUGUCAGCAAGUCAAAGACUUGCUCUUCUGUGUAGAAGGGACUGUGUACA [Omei KL FMN B Exc A v4]"
  cat: "Not satisfied"
- sequence text: "GAUUUAGAGGCGGCCGCCACUAGUGAUGUUAGUGAUGUUUGAUACGGAAUAUAUCUGCGAGUAGAUAGGACCGGGCCAGAUGGAG [rttrbmullin]"
  cat: "Satisfied"
- sequence text: "AAGAGGUAGGCGGCCGCCACUAGUUGUGAACACAUACGAGCCAGUGAUGUUGGUAUGGUGGGCGGUAGGACCGGGCCUACCUGAA [Exclusion - Tryptophan B (Freestyle 18)]"
  cat: "Satisfied"
- sequence text: "AGUCCACUCUAAAGAGUGGACCUAAGGGAUACCAGUGAUGUUGGUCACCCUUGGCAGCCCAGGGCCCGGGAUAAACCCGGGCCCA [#09 K4 Theophylline A Exclusion]"
  cat: "Not satisfied"
- sequence text: "GGCAGUGAUGUUGCCAGUGGCAGAUGAGAAGGAGCGUGGUGAGACACAGGUAGGUCGCUCAUUGAAAUUGCUGUCACUAAAAUGC [#5]"
  cat: "Satisfied"
- sequence text: "CGCAGUGAUGUUGCUUAUAUUCUUGGUUAACGAGGACCGGUACGGCCGCCACUCGAUUUCUAACUAUUCCAGUGUUAAUUUGAGU [JR_ExcTryptoA_Sub006]"
  cat: "Satisfied"
- sequence text: "UUUCGGUUCUGAGGAUAUUCGGACAAAUAUAGUGAUGUUGUAUAAGGAGGAGGGUGUUGGCAGUGCGGAGAAGGCAGAAGAGGAU [ExFMNB.U]"
  cat: "Satisfied"
- sequence text: "AAGCAGUCACUCGAAGCCAUCGAAGAUGGCCGAGGACCGGUACGGCCGCCACUCGGAGUGAUGUUCCGAAGACUGCAAAAUAAAA"
  cat: "Satisfied"
